- Tested on: Fibroblast
- Method summary: Multiplex assay against human fibroblast
- Assay type: toxicity, cell-based
- Condition notes: 24 h, 1 µM, compound concentration 1 uM, replicate 2
Readout type: Population Healthy Nuclei (%)
Phrase the answer as number then unit, nothing more needed.

Problem: Can you look up the measured Population Healthy Nuclei (%) of `CCCCC(=O)N(Cc1ccc(-c2ccccc2-c2nnn[nH]2)cc1)[C@H](C(=O)O)C(C)C` for me?
Solution: 52%

Problem: Fill in: Population Healthy Nuclei (%) of CC(=O)Nc1cccc2c1c(Sc1ccc(Cl)cc1)c(C)n2CC(=O)O [AZD1981] is ___
Solution: 53%

Problem: Can you look up the measured Population Healthy Nuclei (%) of CC(C)c1noc(N2CCC(COc3ccc(-c4ccc(S(C)(=O)=O)cc4)nc3)CC2)n1 [GSK-1292263] for me?
Solution: 53%

Problem: Which Population Healthy Nuclei (%) is listed for `COc1ccccc1N1CCN(C[C@@H](C(=O)NC(C)(C)C)c2ccccc2)CC1.Cl.Cl` ?
Solution: 55%

Problem: Find the recorded Population Healthy Nuclei (%) belonging to Cl.NCCc1ccc(O)c(O)c1 [DOPAMINE HYDROCHLORIDE] and report it.
Solution: 47%

Problem: # get_value(readout='Population Healthy Nuclei (%)', item= CC(C)COc1ccc(CNC(=O)N(Cc2ccc(F)cc2)C2CCN(C)CC2)cc1 [PIMAVANSERIN] )
Solution: 46%

Problem: Query (compound): `Cc1onc(-c2ccccc2Cl)c1C(=O)N(C)c1ccc(Cl)cc1` ; field requested: Population Healthy Nuclei (%)
Solution: 54%

Problem: Value lookup for Population Healthy Nuclei (%); key = `NCCc1cn(S(=O)(=O)c2c(Cl)nc3sccn23)c2ccccc12.O=C(O)C(=O)O`
Solution: 44%

Problem: Given COC[C@@H](c1ccc(C(F)(F)F)cc1)N1CCN(C2(C)CCN(C(=O)c3c(C)ncnc3C)CC2)C[C@@H]1C.O=C(O)/C=C\C(=O)O [VICRIVIROC MALEATE] , state its recorded Population Healthy Nuclei (%).
Solution: 50%

Problem: Given the entry CN[C@@H](C)C(=O)N[C@H](C(=O)N1CCC[C@H]1C(=O)Nc1snnc1-c1ccccc1)C1CCCCC1 [GDC-0152] , report its measured Population Healthy Nuclei (%).
Solution: 55%

Problem: What does the data say about its Population Healthy Nuclei (%)? Entry: `Cc1noc(-c2ccc(-c3ccc(CC(=O)O)cc3)cc2)c1NC(=O)O[C@H](C)c1ccccc1Cl`
Solution: 57%

Problem: Recorded Population Healthy Nuclei (%) for `N#Cc1cc(F)cc(-c2nc(-c3ccc(F)cn3)no2)c1` , please?
Solution: 38%

Problem: # get_value(readout='Population Healthy Nuclei (%)', item= Cc1c(CC(=O)O)c2cccnc2n1Cc1ccc(S(C)(=O)=O)cc1C(F)(F)F [FEVIPIPRANT] )
Solution: 47%

Problem: So what does the record say about Population Healthy Nuclei (%) for `Cc1cnc(-c2cc(N3CCN(C(=O)CCS(C)(=O)=O)CC3)ncc2Cl)c(C)c1` ?
Solution: 38%

Problem: What measured Population Healthy Nuclei (%) goes with CC[C@@H](C)Nc1nc(C)nc2c(-c3ccc(OC)nc3C)c(C)nn12 [PEXACERFONT] ?
Solution: 42%

----------
- Tested on: U2OS
- Method summary: Multiplex assay against U2OS
- Format: toxicity, cell-based
- Condition notes: human, 24 h, 10 µM, compound concentration 10 uM, replicate 1
So basically every entry gets a class from its Population Membrane Permeable-Phenotype (%), ranges being c1 = under 5%, c2 = from 5% up to 20%, c3 = 20% and over

Problem: Which Population Membrane Permeable-Phenotype (%) category applies to `CN1CCN(c2cc(-c3ccccc3)nc(N)n2)CC1` here?
Solution: c2

Problem: Into which bin does this compound go? `CC(/C=C1\SC(=S)N(CCCC(=O)Nc2ccc(C(=O)O)c(O)c2)C1=O)=C\c1ccccc1`
Solution: c2

Problem: Consider `Cc1onc(-c2ccccc2Cl)c1C(=O)N(C)c1ccc(Cl)cc1` . To which Population Membrane Permeable-Phenotype (%) class does it belong?
Solution: c2

Problem: For the record Cc1sc2c(c1C)C(c1ccc(Cl)cc1)=N[C@@H](CC(=O)NCCCCCCCCNC(=O)COc1cccc3c1C(=O)N(C1CCC(=O)NC1=O)C3=O)c1nnc(C)n1-2 (stereo partly drawn) , report the class its Population Membrane Permeable-Phenotype (%) corresponds to.
Solution: c1

Problem: Quick check: band for `CN(C)C(=O)Cn1cc(-c2ccc(-c3cncc4ccccc34)cc2)cn1`
Solution: c2

Problem: Hi there! Could you help me figure out the category for COC[C@@H](c1ccc(C(F)(F)F)cc1)N1CCN(C2(C)CCN(C(=O)c3c(C)ncnc3C)CC2)C[C@@H]1C.O=C(O)/C=C\C(=O)O [VICRIVIROC MALEATE] please?
Solution: c1

Problem: Which class does `CC(C)(C)c1cc(NC(=O)Nc2ccc(-c3cn4c(n3)sc3cc(OCCN5CCOCC5)ccc34)cc2)no1` fall in?
Solution: c3

Problem: Please let me know in which category the item `NCCc1cn(S(=O)(=O)c2c(Cl)nc3sccn23)c2ccccc12.O=C(O)C(=O)O` belongs.
Solution: c3

Problem: Consider `CC(=O)Nc1cccc2c1c(Sc1ccc(Cl)cc1)c(C)n2CC(=O)O` . To which Population Membrane Permeable-Phenotype (%) class does it belong?
Solution: c2

Problem: Which class does Cl.NCCc1ccc(O)c(O)c1 [DOPAMINE HYDROCHLORIDE] fall in?
Solution: c1

Problem: Category lookup for the compound Cl.N=C(N)NC(=O)Cc1c(Cl)cccc1Cl [GUANFACINE HYDROCHLORIDE]
Solution: c2

Problem: Which category fits this record: `Cc1cccc(NC(=O)CN2CCC(c3ccccn3)CC2)c1.Cl.Cl`
Solution: c2

Problem: Class for `CC(C)COc1ccc(CNC(=O)N(Cc2ccc(F)cc2)C2CCN(C)CC2)cc1` ?
Solution: c3

Problem: Please classify: O=C(NCCN1CCC(n2c(=O)[nH]c3cc(Cl)ccc32)CC1)c1ccc(F)cc1 [HALOPEMIDE]
Solution: c2

----------
- Test system: U2OS
- Method summary: Multiplex assay against U2OS
- Type: toxicity, cell-based
- Condition notes: human, 24 h, 10 µM, compound concentration 10 uM, replicate 1
Would you mind telling me the reported Population Healthy Nuclei (%) of each entry?
Reply with just the number (in %).

Problem: Record `CCCCC1=NC2(CCCC2)C(=O)N1Cc1ccc(-c2ccccc2-c2nnn[nH]2)cc1` : what is its Population Healthy Nuclei (%) with U2OS?
Solution: 73

Problem: Given the entry Cc1sc2c(c1C)C(c1ccc(Cl)cc1)=N[C@@H](CC(=O)NCCCCCCCCNC(=O)COc1cccc3c1C(=O)N(C1CCC(=O)NC1=O)C3=O)c1nnc(C)n1-2 (some centres undefined) , what Population Healthy Nuclei (%) was observed with U2OS?
Solution: 53

Problem: Query the reported Population Healthy Nuclei (%) for U2OS; item: `Cc1onc(-c2ccccc2Cl)c1C(=O)N(C)c1ccc(Cl)cc1`
Solution: 62

Problem: For the record `O=C(CCCc1ccccc1)Nc1nc2ccccc2c(=O)s1` , what value of Population Healthy Nuclei (%) is listed for U2OS?
Solution: 65

Problem: Param readout = Population Healthy Nuclei (%); param system = U2OS; param query = `CN1CCN(c2cc(-c3ccccc3)nc(N)n2)CC1` ; response: value
Solution: 69

Problem: Find the measured Population Healthy Nuclei (%): item O=C(NCCN1CCC(n2c(=O)[nH]c3cc(Cl)ccc32)CC1)c1ccc(F)cc1 [HALOPEMIDE] , target or system U2OS.
Solution: 64

Problem: Which Population Healthy Nuclei (%) is reported with U2OS for this entry: `Cc1noc(-c2ccc(-c3ccc(CC(=O)O)cc3)cc2)c1NC(=O)O[C@H](C)c1ccccc1Cl` ?
Solution: 65

Problem: Any idea what Population Healthy Nuclei (%) came out for `CC(C)COc1ccc(CNC(=O)N(Cc2ccc(F)cc2)C2CCN(C)CC2)cc1` on U2OS?
Solution: 40

Problem: Item: Cl.NCCc1ccc(O)c(O)c1 [DOPAMINE HYDROCHLORIDE] Test system: U2OS Read-out: Population Healthy Nuclei (%) Value: ?
Solution: 70

----------
- Test system: U2OS
- Method summary: Multiplex assay against U2OS
- Type: toxicity, cell-based
- Condition notes: human, 48 h, 1 µM, compound concentration 1 uM, replicate 2
Readout type: Total Cell Count

Problem: Consider the molecule shown here: Cc1sc2c(c1C)C(c1ccc(Cl)cc1)=N[C@@H](CC(=O)NCCCCCCCCNC(=O)COc1cccc3c1C(=O)N(C1CCC(=O)NC1=O)C3=O)c1nnc(C)n1-2 (some centres undefined) What is its recorded Total Cell Count?
Solution: 270

Problem: What value of measured Total Cell Count is listed for O=C(NCCN1CCC(n2c(=O)[nH]c3cc(Cl)ccc32)CC1)c1ccc(F)cc1 [HALOPEMIDE] ?
Solution: 187

Problem: Reported Total Cell Count for `CC(/C=C1\SC(=S)N(CCCC(=O)Nc2ccc(C(=O)O)c(O)c2)C1=O)=C\c1ccccc1` : what is it?
Solution: 253

Problem: Total Cell Count for `O=C1[C@H](Cc2ccc(O)cc2)N2C(=O)CCN(C(=O)NCc3ccccc3)[C@H]2CN1Cc1cccc2ccccc12` ?
Solution: 168

Problem: Value lookup for Total Cell Count; key = `COc1cccc2c1c(NS(=O)(=O)c1ccc(Cl)s1)nn2Cc1cccc(CNC(=O)C(C)(C)O)c1`
Solution: 314

Problem: If you can, please state the reported Total Cell Count value of CC[C@@H](C)Nc1nc(C)nc2c(-c3ccc(OC)nc3C)c(C)nn12 [PEXACERFONT] .
Solution: 261

Problem: Fill blank: measured Total Cell Count of the molecule `CN1CCN(c2cc(-c3ccccc3)nc(N)n2)CC1` is ____.
Solution: 267

Problem: Which Total Cell Count is listed for `NCCc1cn(S(=O)(=O)c2c(Cl)nc3sccn23)c2ccccc12.O=C(O)C(=O)O` ?
Solution: 182

Problem: For the molecule CC(=O)Nc1cccc2c1c(Sc1ccc(Cl)cc1)c(C)n2CC(=O)O [AZD1981] , what Total Cell Count is on record?
Solution: 144
